subject of test: T1, human CD38 (human, UniProt P28907 43-300, limits assumed)
T1 construct: Soluble analyte in SPR; the construct (limits, tags) is not described; also called huCD38
protocol description: SPR (Biacore), mAb captured on anti-Fc CM5 chip, huCD38 injected; n = 3

binder	unit	koff
mAb 5 (antibody, human IgG1, kappa, V domains shown, Humanized heavy and light chains with engineered Fc; also called anti-CD38 mAb 5; HEAVY CHAIN 5 / LIGHT CHAIN 2) VH: QVQLVQSGAEVAKPGASVKVSCKASGYTFTDYWMQWVRQAPGQGLEWIGTIYPGDGDTSYAQKFQGRVTMTADTSTSTVYMELSSLRSEDTAVYYCARGDYYGSNSLDYWGQGTLVTVSS VL: DIVMTQSPDSLAVSLGERATINCKSSQDVSTVLAWYQQKPGQSPRRLIYSASYRYIGVPDRFSGSGSGTDFTLTISSLQAEDVAVYYCQQHYSPPYTFGGGTKLEIKR	s⁻¹	0.00188
mAb 8 (antibody, human IgG1, kappa, V domains shown, Humanized heavy and light chains with engineered Fc; also called anti-CD38 mAb 8; HEAVY CHAIN 6 / LIGHT CHAIN 3) VH: QVQLVQSGAEVAKPGASVKVSCKASGYTFTDYWMQWVKQRPGQGLEWIGTIYPGDGDTGYAQKFQGRVTMTADKSTSTVYMELSSLRSEDTAVYYCARGDYYGSNSLDYWGQGTLVTVSS VL: DIVMTQSPDSLAVSLGERATINCKSSQDVSTVVAWYQQKPGQSPRRLIYSASYRYIGVPDRFSGSGSGTDFTFTISSLQAEDVAVYYCQQHYSPPYTFGGGTKLEIKR	s⁻¹	0.00065
mAb 7 (antibody, human IgG1, kappa, V domains shown, Humanized heavy and light chains with engineered Fc; also called anti-CD38 mAb 7; HEAVY CHAIN 6 / LIGHT CHAIN 2) VH: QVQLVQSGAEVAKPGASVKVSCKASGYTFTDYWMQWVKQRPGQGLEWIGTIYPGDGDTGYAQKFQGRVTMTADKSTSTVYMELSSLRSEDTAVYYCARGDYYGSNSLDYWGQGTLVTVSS VL: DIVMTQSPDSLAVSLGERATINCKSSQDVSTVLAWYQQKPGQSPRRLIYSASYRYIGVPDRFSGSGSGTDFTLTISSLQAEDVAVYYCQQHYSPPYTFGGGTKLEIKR	s⁻¹	0.0013
